Entry source: the kinase profiling compilation of Christmann-Franck et al. (2016)

target: EPHA1 (human) (UniProt P21709); test: KINOMEscan competition binding; conditions: compound 10.0 µM
Sequence (P21709 whole entry, looked up): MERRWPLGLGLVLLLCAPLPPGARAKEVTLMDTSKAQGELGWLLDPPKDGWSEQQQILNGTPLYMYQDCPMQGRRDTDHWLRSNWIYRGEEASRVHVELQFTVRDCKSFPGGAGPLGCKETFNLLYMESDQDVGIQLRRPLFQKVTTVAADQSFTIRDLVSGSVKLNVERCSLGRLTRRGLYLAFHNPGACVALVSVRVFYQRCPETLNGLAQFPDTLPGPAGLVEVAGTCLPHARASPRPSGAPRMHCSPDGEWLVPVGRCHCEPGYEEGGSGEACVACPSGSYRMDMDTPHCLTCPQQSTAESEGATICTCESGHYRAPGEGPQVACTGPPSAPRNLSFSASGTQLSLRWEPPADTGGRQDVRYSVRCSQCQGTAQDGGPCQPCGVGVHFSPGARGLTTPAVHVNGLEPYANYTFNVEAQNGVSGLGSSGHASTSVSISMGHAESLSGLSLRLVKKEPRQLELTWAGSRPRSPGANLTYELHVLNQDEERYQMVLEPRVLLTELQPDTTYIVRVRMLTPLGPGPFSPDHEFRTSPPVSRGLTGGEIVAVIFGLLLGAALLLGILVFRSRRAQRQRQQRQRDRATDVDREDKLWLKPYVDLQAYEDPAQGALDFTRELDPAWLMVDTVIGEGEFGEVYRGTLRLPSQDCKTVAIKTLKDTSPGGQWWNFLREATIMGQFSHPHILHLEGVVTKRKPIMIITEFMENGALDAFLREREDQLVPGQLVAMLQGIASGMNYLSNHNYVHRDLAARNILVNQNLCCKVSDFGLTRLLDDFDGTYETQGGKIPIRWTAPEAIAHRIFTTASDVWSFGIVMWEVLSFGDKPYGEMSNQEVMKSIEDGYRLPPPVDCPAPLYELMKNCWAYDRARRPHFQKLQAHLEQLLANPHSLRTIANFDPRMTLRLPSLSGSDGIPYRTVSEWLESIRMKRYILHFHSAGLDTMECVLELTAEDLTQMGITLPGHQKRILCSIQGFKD
MEASURED_ENDPOINT: kinase still bound, per cent of control

Cc1ccc(O)cc1Nc1ccnc(Nc2cccc(C(N)=O)c2)n1; 0%
CC(=O)c1c(-c2ccncc2)[nH]c(-c2ccncc2)c1C; no effect (inactive)
c1ccc(-c2n[nH]cc2-c2ccnc3ccccc23)nc1; no effect (inactive)
NC(=O)c1ccc(-c2cc(C(N)=O)c(N)c(-c3ccc(S(N)(=O)=O)cc3)c2)cc1; no effect (inactive)

---

molecular target: GSK3A (human); experiment: KINOMEscan competition binding; settings: compound 10.0 µM
MEASURED_ENDPOINT: kinase still bound, per cent of control

Study these solved cases before continuing.
NC(=O)Nc1sc(-c2ccc(F)cc2)cc1C(N)=O; no effect (inactive)
Cc1cc(Nc2cc(N3CCN(C)CC3)nc(Sc3ccc(NC(=O)C4CC4)cc3)n2)[nH]n1; no effect (inactive)
O=C1Nc2ccccc2/C1=C/c1ccc[nH]1; no effect (inactive)
c1ccc(-c2n[nH]cc2-c2ccnc3ccccc23)nc1; no effect (inactive)

Now consider the entry below.
Ask: Hello, please tell me recorded kinase still bound, per cent of control for this one: CCS(=O)(=O)Nc1ccc2c(c1)[C@H](/C(=N/c1ccc(CN3CCCCC3)cc1)c1ccccc1)C(=O)N2
Result: 0.85%

---

biological target: PHKG2 (human); test: KINOMEscan competition binding; conditions: compound 10.0 µM
MEASURED_ENDPOINT: kinase still bound, per cent of control

Study these solved cases before continuing.
N#Cc1ccc(-c2cnc3[nH]cc(NC(=O)c4cccnc4)c3c2)cc1; no effect (inactive)
Nc1ncnc2c1c(-c1cccc(O)c1)cn2C1CCNCC1; no effect (inactive)
O=C(Nc1n[nH]c2nc(-c3cccc(O)c3)ccc12)C1CC1; no effect (inactive)
Cc1ccc(C(=O)Nc2cccc(C(C)(C)C)c2)cc1-c1ccc(C(=O)NCC2CC2)cc1; no effect (inactive)
CCS(=O)(=O)Nc1ccc2c(c1)[C@H](/C(=N/c1ccc(CN3CCCCC3)cc1)c1ccccc1)C(=O)N2; 0%

Ask: Hello, please tell me recorded kinase still bound, per cent of control for this one: Cc1ccc(NC(=O)c2cccc(N3CCCCC3)c2)cc1-c1ccc(C(=O)NCC2CC2)cc1
Result: no effect (inactive)

Ask: Hello, please tell me recorded kinase still bound, per cent of control for this one: Cc1cc(Nc2cc(N3CCN(C)CC3)nc(Sc3ccc(NC(=O)C4CC4)cc3)n2)[nH]n1
Result: no effect (inactive)
